B1: LINE1-full (parent)
chain: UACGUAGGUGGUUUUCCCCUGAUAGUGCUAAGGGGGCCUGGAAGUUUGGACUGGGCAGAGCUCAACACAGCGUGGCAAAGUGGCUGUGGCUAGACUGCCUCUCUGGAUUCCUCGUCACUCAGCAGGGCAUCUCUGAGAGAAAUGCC

Variants of: B1
Measurement Protocol: self-cleavage, relative activity (ratio to wild type); higher = more cleavage; in vitro, sequencing; the parent is a self-cleaving ribozyme
Would you mind telling me the reported self-cleavage of each entry?
Form rule: numeric answer, no unit written next to it.

Documented self-cleavage of U85C U87C : 0.04

self-cleavage reading for A6G G32A : 0.68

C110A A124G has a reported self-cleavage of 1.62

Lab note: measured self-cleavage of U115C C146U was 1.31

Reported self-cleavage of `U108C` : 1.64

Entry under test: U96C A121C . Its self-cleavage was 0.09

G75A U109C yielded self-cleavage of 1.1

Value of measured self-cleavage for the entry C3U C111U : 0.65

Quick note, self-cleavage for G72A G88A landed at 0.03

For this variant ( G33A U102A ), measured self-cleavage is 0.64

// self-cleavage value for U5C C146U : 0.69

Lab note: U109A U134G gave self-cleavage of 1.25

GET /value?item= `U87A` &field=self-cleavage returns 0.08

Short answer for U12G U130C : self-cleavage was 1.43

Entry U73A G125A , self-cleavage reported as 1.92

// field: self-cleavage; key: U20C G54U ; value = 0.91

For this variant ( A117U C131U ), measured self-cleavage is 1.21

So for A50G U62A , the logged self-cleavage turned out to be 0.09

self-cleavage reading for A92U C110U : 0.46

Please fill in: self-cleavage reported for G11A A124G = 0.85

Value of self-cleavage reported for the variant U62C A107U is 0.06

Entry U130A A142G ; self-cleavage = 1.48

Memo: U87C A117C , reported self-cleavage: 0

U5A A136U yielded self-cleavage of 1.11

Summary for this variant, U81A G114C : self-cleavage is 2.67

Sure, the documented self-cleavage for U20C A59G is 0.11

What the record says about U23A A50G : self-cleavage is 1.25

# self-cleavage of U9G A142G = 0.95

Summary for this variant, G33U A50U : self-cleavage is 1.14

Lookup result for G60A U91C ; measured self-cleavage: 0

Sure, the documented self-cleavage for U87C A136G is 0.24

Lab note: measured self-cleavage of A65G G86A was 0.02

What the record says about U100A U134C : self-cleavage is 1.12

variant A57U U96G , self-cleavage observed: 0.22

Reported self-cleavage of U46C U81A : 2.18

The variant U9A C37G showed self-cleavage equal to 0.82

Value of self-cleavage reported for the variant A22G A117C is 2.12

The recorded self-cleavage for U20G U81C is 1.08

Noted for A117U G126U : its self-cleavage reads 1.11

Briefly, self-cleavage measured for A64G G86A : 0.08

Entry `U87C` , self-cleavage reported as 0.22

Lookup result for C37A A94C ; measured self-cleavage: 0.06

Record C84A G93U , field self-cleavage: 0.05

// self-cleavage value for U5A U81C : 0.99

# self-cleavage (variant: A43G A79C ) is 2.63

The reported self-cleavage of the variant U87A U134A was 0.13

# self-cleavage (variant: `A136G` ) is 1.27

Field self-cleavage (entry A77G A136G ) reads 2.64

// field: self-cleavage; key: U12G U108C ; value = 1.52

The variant listed as U81C U134A shows self-cleavage equal to 0.94

Entry U13C A129G — recorded self-cleavage = 1.52

The recorded self-cleavage for U14C U20G is 0.9

response.value for A2U U143C (field: self-cleavage) = 1.28

Briefly, self-cleavage measured for C116U U130C : 0.89

Please fill in: self-cleavage reported for G32U A77G = 3

Recorded result, U26C C131G , self-cleavage: 2.07

// self-cleavage value for A6G U12C : 0.73

Lab book: self-cleavage of A24G G55A noted as 0.3

Notebook: U9A U91C , self-cleavage read as 0.36

Quick note, self-cleavage for `C37A` landed at 1.04

// field: self-cleavage; key: U119C A129G ; value = 1.88

For this variant ( `G93A` ), measured self-cleavage is 0.04

Entry A50G G122U , self-cleavage reported as 1.09

The variant listed as U20C C63U shows self-cleavage equal to 0.48

The value of self-cleavage measured for the variant A77U A92U turned out to be 0.63

Record A42G G106U . Reported self-cleavage: 1.1

Recorded result, U39A A67G , self-cleavage: 0.43

Kindly note the recorded self-cleavage for U20A A129G , which is 0.97

// self-cleavage lookup, variant = G44U U109C , result: 1.31

Quick note, self-cleavage for C120U U134C landed at 1.27

Form: variant = U15C U104G ; self-cleavage = 1.29

GET /value?item= A124G A140U &field=self-cleavage returns 0.94

self-cleavage in this record for A24G U85C : 0

Looking up A64U U132G , I found its self-cleavage recorded as 0.61

Recorded self-cleavage (variant A67G G135A ): 0.68

For this variant ( A64C A67G ), measured self-cleavage is 0.04

Consider U73A G105A . Its measured self-cleavage is 2.29

Per the records, this variant ( U52C A124U ) has self-cleavage equal to 1.48

// self-cleavage value for G33A A50G : 1.02

Summary for this variant, U91A U108C : self-cleavage is 0.73

Record G33A A121G , field self-cleavage: 1.28

Looking up U102C U104C , I see its self-cleavage listed as 0.95

The reported self-cleavage of the variant U102C A129U was 1.22

Item: U46C A138U | self-cleavage: 1.65

Field self-cleavage (entry U29A U39G ) reads 1.58

GET /value?item= G7U A77U &field=self-cleavage returns 1.04

response.value for A57U U81C (field: self-cleavage) = 0.12

// self-cleavage lookup, variant = A78U U96A , result: 0.07

Per the record, A57G C120A has self-cleavage of 0.93

// field: self-cleavage; key: A79G A124G ; value = 0.62

// self-cleavage lookup, variant = G7A G89A , result: 0.02
